# Test system: common ragweed
# assay.summary: Test C pre-/postemergence herbicide test
# Type: in vivo, Ambrosia elatior
# Design: key: 0 = no effect, 100 = complete control
# experimental.parameters: 250 g ai/ha; scale 0-100; preemergence
# Text: […]
endpoint.name: Plant response rating, Ragweed
Answer as a number with no unit attached.

Study these solved cases before continuing.
1. CCn1nc(C(C)(C)C)cc1C(=O)Nc1cc(C(=O)N(C)OC)ccc1F [Compound 244]    100
2. CCc1nc(C(C)(C)C)sc1C(=O)Nc1cccc(C(=O)N(CC)CC)c1 [Compound 205]    50
3. CCN(CC)C(=O)c1cccc(NC(=O)c2cc(C(C)(C)C)nn2C)n1 [Compound 314]    40
4. CCNC(=O)c1ccc(F)c(NC(=O)c2cn(C(C)(C)C)nc2CC)c1 [Compound 193]    100

Kindly note the recorded Plant response rating, Ragweed for CCN(CC)C(=O)c1cccc(NC(=O)c2sc(C(C)(C)C)nc2C)c1 [Compound 199] , which is 80

---

# Tested on: barnyardgrass
# assay.summary: Test B pre-/postemergence herbicide test
# Format: in vivo, Echinochloa crus-galli
# experimental.parameters: Postemergence, 500 g ai/ha; scale 0 (no effect) to 100 (complete control)
Documented Barnyardgrass plant response rating across a set of compounds
Answer as a number with no unit attached.

1. C=CCN(CC=C)C(=O)c1cccc(NC(=O)c2nn(C(C)(C)C)nc2CC)c1    20
2. CCNC(=O)c1ccc(F)c(NC(=O)c2nn(C(C)C)nc2C)c1    0
3. CCOC(=O)c1cccc(NC(=O)c2nn(C(C)C)nc2C)c1    0

Continue with the compound presented below.
Kindly note the recorded Barnyardgrass plant response rating for `Cc1nn(C(C)(C)C)nc1C(=O)Nc1cccc(C(=O)N2CC=CC2)n1` , which is 0

---

# Test system: Surinam grass
# assay.summary: Test B pre-/postemergence herbicide test
# Assay type: in vivo, Urochloa decumbens
# experimental.parameters: 500 g ai/ha; visual rating, 0 = no effect, 100 = complete control; preemergence
endpoint.name: Plant response rating, Surinam Grass

Study these solved cases before continuing.
1) CCNC(=O)c1ccc(F)c(NC(=O)c2cc(C3(C)CC3)nn2CC)c1    100
2) CCn1nc(C(C)(C)C)cc1C(=O)Nc1ccc(OC)c(OC)c1    100
3) CC(=NO)c1cccc(NC(=O)c2cc(C(C)(C)C)n[nH]2)c1    0
4) CCn1nc(C(C)(C)C)cc1C(=O)Nc1cc(OC(F)(F)F)ccc1F    60
5) C=CCN(CC=C)C(=O)c1cncc(NC(=O)c2cc(C(C)(C)C)nn2CC)c1    10
6) CCN(CC)C(=O)c1ccc(F)c(NC(=O)C2CC(C(C)(C)C)=NN2CC)c1 (racemic)    60
7) CCn1nc(C(C)(C)C)cc1C(=O)Nc1cncc(C(=O)N2CC=CC2)c1    10
8) C#CCNC(=O)c1cc(NC(=O)c2cc(C(C)(C)C)nn2CC)ccn1    0
9) CCN(C)C(=O)c1ccc(F)c(NC(=O)c2cc(C(C)(C)C)nn2CC)n1    10
10) CCNC(=O)c1cccc(NC(=O)c2nn(C3CCCC3)nc2CC)c1    60

Kindly note the recorded Plant response rating, Surinam Grass for `CCc1nn(C(C)(C)C)cc1C(=O)Nc1cccc(C(=O)N(C)C)n1` , which is 100

Kindly note the recorded Plant response rating, Surinam Grass for `CCn1nc(C(C)(C)C)cc1C(=O)Nc1cncc(C(=O)N2CC=CC2)n1` , which is 10

Kindly note the recorded Plant response rating, Surinam Grass for `CCNC(=O)c1cc(NC(=O)c2cc(C(C)(C)C)nn2CC)ccn1` , which is 0

---

# Test system: velvetleaf
# assay.summary: Test B pre-/postemergence herbicide test
# Type: in vivo, Abutilon theophrasti
# experimental.parameters: postemergence, 125 g ai/ha; visual rating, scale 0 (no effect) to 100 (complete control)
# Procedure: […] At the same time, plants selected from these crop and weed species and also blackgrass (Alopecurus myosuroides Huds.), wheat (Triticum aestivum L.) and wild oat (Avena fatua L.) were treated with postemergence applications of test chemicals formulated in the same manner. […] Treated plants and controls were maintained in a greenhouse for 13 to 15 days, after which time all species were compared to controls and visually evaluated. […]
Output 1 for Velvetleaf plant response rating not less than 20; output -1 otherwise.

1. CC(=O)c1cccc(NC(=O)c2sc(C(C)(C)C)nc2C)c1 [Compound 196]    -1

query: Form field: Velvetleaf plant response rating at least 20? Entry: Cn1nc(C(C)(C)C)cc1C(=O)Nc1cccc(C#N)c1 [Compound 121]
result: -1

query: Form field: Velvetleaf plant response rating at least 20? Entry: CCCCOc1cccc(NC(=O)c2cc(C(C)(C)C)nn2CC)c1 [Compound 137]
result: 1

query: Form field: Velvetleaf plant response rating at least 20? Entry: CCn1nc(C(C)(C)C)cc1C(=O)Nc1cccc(C(=O)N(C)OC)n1 [Compound 246]
result: 1

---

# Tested on: corn
# assay.summary: Test B pre-/postemergence herbicide test
# Assay type: in vivo, Zea mays
# experimental.parameters: Postemergence, 500 g ai/ha; scale 0 (no effect) to 100 (complete control)
Documented Corn plant response rating across a set of compounds
Answer as a number with no unit attached.

1. CCNC(=S)c1cccc(NC(=O)c2nn(C(C)(C)C)nc2C)c1    20
2. CCNC(=O)c1ccc(F)c(NC(=O)c2nn(C(C)C)nc2C)c1    0

Kindly note the recorded Corn plant response rating for `Cc1nn(C(C)C)nc1C(=O)Nc1cc(C(=O)N2CC=CC2)ccc1F` , which is 0

Kindly note the recorded Corn plant response rating for `CCN(C)C(=O)c1cccc(NC(=O)c2nn(C(C)C)nc2C)c1` , which is 20

Kindly note the recorded Corn plant response rating for `CCOC(=O)c1cccc(NC(=O)c2nn(C(C)C)nc2C)c1` , which is 10

Kindly note the recorded Corn plant response rating for `Cc1nn(C(C)(C)C)nc1C(=O)Nc1cccc(C(=O)N2CC=CC2)n1` , which is 30

Kindly note the recorded Corn plant response rating for `CCNC(=O)c1cccc(NC(=O)c2nn(C(C)(C)C)nc2C)n1` , which is 30

---

# Tested on: morningglory
# assay.summary: Test B pre-/postemergence herbicide test
# Type: in vivo, Ipomoea coccinea
# experimental.parameters: postemergence, 500 g ai/ha; visual rating, scale 0 (no effect) to 100 (complete control)
endpoint.name: Morningglory plant response rating
Answer as a number with no unit attached.

Study these solved cases before continuing.
1. CCN(CC)C(=O)c1ccnc(NC(=O)c2cc(C(C)(C)C)nn2CC)c1 [Compound 153]    70
2. CC(=O)c1cccc(NC(=O)c2cc(C(C)(C)C)nn2CC(F)(F)F)c1 [Compound 126]    30
3. CCc1nc(C(C)(C)C)sc1C(=O)Nc1cccc(C(=O)NCC2CC2)c1 [Compound 212]    50
4. CCc1nc(C(C)(C)C)sc1C(=O)Nc1cccc(C(=O)N(CC)CC)c1 [Compound 205]    50
5. CC(C)(C)c1cc(C(=O)Nc2cccc(SC(F)(F)F)c2)n(CCF)n1 [Compound 132]    70
6. CCOc1cccc(NC(=O)c2cn(C(C)(C)C)nc2C)c1 [Compound 190]    90
7. CCOC(=O)c1ccnc(NC(=O)c2cn(C(C)(C)C)nc2CC)c1 [Compound 238]    0

Continue with the compound presented below.
Kindly note the recorded Morningglory plant response rating for CCc1nc(C(C)(C)C)sc1C(=O)Nc1cccc(C(=O)NCCF)c1 [Compound 209] , which is 20

---

# Tested on: pigweed
# assay.summary: Test B pre-/postemergence herbicide test
# Assay type: in vivo, Amaranthus retroflexus
# experimental.parameters: postemergence, 500 g ai/ha; scale 0 to 100, 0 is no effect, 100 is complete control
# Procedure: […] At the same time, plants selected from these crop and weed species and also blackgrass (Alopecurus myosuroides Huds.), wheat (Triticum aestivum L.) and wild oat (Avena fatua L.) were treated with postemergence applications of test chemicals formulated in the same manner. […] Treated plants and controls were maintained in a greenhouse for 13 to 15 days, after which time all species were compared to controls and visually evaluated. […]
endpoint.name: Pigweed plant response rating
Answer as a number with no unit attached.

1) CCn1nc(C(C)(C)C)cc1C(=O)Nc1cc(C(=O)N(C)OC)ccc1F [Compound 244]    70

Kindly note the recorded Pigweed plant response rating for CC(=NO)c1cccc(NC(=O)c2cc(C(C)(C)C)n[nH]2)c1 [Compound 311] , which is 0

Kindly note the recorded Pigweed plant response rating for CCN1N=C(C(C)(C)C)CC1C(=O)Nc1cc(C(=O)N2CC=CC2)ccc1F (racemic) [Compound 310] , which is 70

Kindly note the recorded Pigweed plant response rating for C=CCN(CC=C)C(=O)c1cncc(NC(=O)c2cc(C(C)(C)C)nn2CC)c1 [Compound 262] , which is 80
